- ASSAY SUMMARY: in vivo resorption examination in mice: serum concentration determined microbiologically from inhibition zones
- Design: species or system Male CFLP mice
- APPLIED CONDITIONS: mouse, serum; mice, 70 mg/kg choline oxolinate, first sampling; read-out: time at which a high level of serum concentration was reached
OBSERVATION TYPE: Tmax

Query :: Provide measured Tmax value, entry: CCn1cc(C(=O)O)c(=O)c2cc3c(cc21)OCO3 [choline oxolinate]
Result :: ≤ 30 min

---

- ASSAY SUMMARY: in vivo resorption examination in mice: serum concentration determined microbiologically from inhibition zones
- Design: species or system Male CFLP mice
- APPLIED CONDITIONS: mouse, serum; 3 hours after treatment; 50 mg/kg oxolinic acid or 70 mg/kg choline oxolinate; read-out: Plasma concentrations from the calibration curve
Give measured concentration at 3 h for each item. Keep answers brief.
Answers are plain numbers, in ng/mL.

MOLECULE	UNIT LABEL	concentration at 3 h
CCn1cc(C(=O)O)c(=O)c2cc3c(cc21)OCO3 [choline oxolinate]	ng/mL	6600

Continue with the molecule presented below.
Query :: Provide measured concentration at 3 h value, entry: CCn1cc(C(=O)O)c(=O)c2cc3c(cc21)OCO3 [oxolinic acid]
Result :: 4200

---

- ASSAY SUMMARY: in vivo resorption examination in mice: serum concentration determined microbiologically from inhibition zones
- Design: species or system Male CFLP mice
- APPLIED CONDITIONS: mouse, serum; 4 hours after treatment; 50 mg/kg oxolinic acid or 70 mg/kg choline oxolinate; read-out: Plasma concentrations from the calibration curve
Give measured concentration at 4 h for each item. Keep answers brief.
Give bare numbers, in ng/mL.

COMPOUND	MEASURED NUMBER
CCn1cc(C(=O)O)c(=O)c2cc3c(cc21)OCO3 [choline oxolinate]	3100

Query :: Provide measured concentration at 4 h value, entry: CCn1cc(C(=O)O)c(=O)c2cc3c(cc21)OCO3 [oxolinic acid]
Result :: 4800

---

- ASSAY SUMMARY: in vivo resorption examination in mice: serum concentration determined microbiologically from inhibition zones
- Design: species or system Male CFLP mice
- APPLIED CONDITIONS: mouse, serum; 2 hours after treatment; 50 mg/kg oxolinic acid or 70 mg/kg choline oxolinate; read-out: Plasma concentrations from the calibration curve
Give measured concentration at 2 h for each item. Keep answers brief.
Give bare numbers, in ng/mL.

COMPOUND	UNIT LABEL	concentration at 2 h
CCn1cc(C(=O)O)c(=O)c2cc3c(cc21)OCO3 [oxolinic acid]	ng/mL	4600

Continue with the compound presented below.
Query :: Provide measured concentration at 2 h value, entry: CCn1cc(C(=O)O)c(=O)c2cc3c(cc21)OCO3 [choline oxolinate]
Result :: 15000

---

Give measured concentration at 0.5 h for each item. Keep answers brief.
- ASSAY SUMMARY: in vivo resorption examination in mice: serum concentration determined microbiologically from inhibition zones
- Set-up: species or system Male CFLP mice
- APPLIED CONDITIONS: mouse, serum; 0.5 hour after treatment; 50 mg/kg oxolinic acid or 70 mg/kg choline oxolinate; as oxolinic acid; read-out: Plasma concentrations from the calibration curve
Answers are plain numbers, in ng/mL.

COMPOUND	concentration at 0.5 h / ng/mL
CCn1cc(C(=O)O)c(=O)c2cc3c(cc21)OCO3 [choline oxolinate]	56000

Continue with the compound presented below.
Query :: Provide measured concentration at 0.5 h value, entry: CCn1cc(C(=O)O)c(=O)c2cc3c(cc21)OCO3 [oxolinic acid]
Result :: 15000
